meta.source: ChEMBL document CHEMBL4364280

Consider the following molecules and their measured pKi readings.
Measurement target: D(2) dopamine receptor (Homo sapiens, UniProt P14416)
Sequence (P14416 whole entry): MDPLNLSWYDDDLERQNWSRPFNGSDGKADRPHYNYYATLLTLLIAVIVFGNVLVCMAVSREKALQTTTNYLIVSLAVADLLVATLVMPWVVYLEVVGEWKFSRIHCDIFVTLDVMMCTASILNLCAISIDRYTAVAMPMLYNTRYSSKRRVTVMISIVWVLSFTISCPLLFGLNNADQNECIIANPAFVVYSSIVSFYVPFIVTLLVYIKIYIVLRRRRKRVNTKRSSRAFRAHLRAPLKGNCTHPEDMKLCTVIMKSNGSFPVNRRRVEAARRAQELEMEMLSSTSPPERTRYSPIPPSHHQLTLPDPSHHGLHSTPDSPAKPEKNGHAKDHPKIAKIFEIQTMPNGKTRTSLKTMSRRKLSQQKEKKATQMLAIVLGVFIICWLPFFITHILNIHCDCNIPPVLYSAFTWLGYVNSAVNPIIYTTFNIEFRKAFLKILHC
To interpret pKi, take it as minus log10 of a concentration measured in moles per litre.

Some entries whose results are on file:
Molecule: CN1CCN(c2nc(N)nc(COc3ccccc3Cl)n2)CC1
Measurement target: D(2) dopamine receptor (Homo sapiens, UniProt P14416)
Measured value: 5.63
--
Molecule: CC(Oc1cccc(Cl)c1)c1nc(N)nc(N2CCN(C)CC2)n1 (stereo not drawn)
Measurement target: D(2) dopamine receptor (Homo sapiens, UniProt P14416)
Measured value: 6.25
--
Molecule: Cc1ccc(OCc2nc(N)nc(N3CCN(C)CC3)n2)cc1
Measurement target: D(2) dopamine receptor (Homo sapiens, UniProt P14416)
Measured value: 5.54
--
Molecule: CN1CCN(c2nc(N)nc(C[Se]c3ccccc3)n2)CC1
Measurement target: D(2) dopamine receptor (Homo sapiens, UniProt P14416)
Measured value: 6.30
--
Molecule: CN1CCN(c2nc(N)nc(COc3cccc(Cl)c3)n2)CC1
Measurement target: D(2) dopamine receptor (Homo sapiens, UniProt P14416)
Measured value: 6.17
--
Molecule: CN1CCN(c2nc(N)nc(CSc3ccccc3)n2)CC1
Measurement target: D(2) dopamine receptor (Homo sapiens, UniProt P14416)
Measured value: 6.13
--
Molecule: Cc1ccccc1OCc1nc(N)nc(N2CCN(C)CC2)n1
Measurement target: D(2) dopamine receptor (Homo sapiens, UniProt P14416)
Measured value: 5.37

The record that follows has no pKi shown yet.
Given the molecule CC([Se]c1ccccc1)c1nc(N)nc(N2CCN(C)CC2)n1 (stereo not drawn) , what is its reported pKi?
6.18
